What pIC50 was measured for each of the following?
# EXPERIMENTAL TARGET: jack bean urease (Canavalia ensiformis)
# Sequence (P07374 whole entry, looked up): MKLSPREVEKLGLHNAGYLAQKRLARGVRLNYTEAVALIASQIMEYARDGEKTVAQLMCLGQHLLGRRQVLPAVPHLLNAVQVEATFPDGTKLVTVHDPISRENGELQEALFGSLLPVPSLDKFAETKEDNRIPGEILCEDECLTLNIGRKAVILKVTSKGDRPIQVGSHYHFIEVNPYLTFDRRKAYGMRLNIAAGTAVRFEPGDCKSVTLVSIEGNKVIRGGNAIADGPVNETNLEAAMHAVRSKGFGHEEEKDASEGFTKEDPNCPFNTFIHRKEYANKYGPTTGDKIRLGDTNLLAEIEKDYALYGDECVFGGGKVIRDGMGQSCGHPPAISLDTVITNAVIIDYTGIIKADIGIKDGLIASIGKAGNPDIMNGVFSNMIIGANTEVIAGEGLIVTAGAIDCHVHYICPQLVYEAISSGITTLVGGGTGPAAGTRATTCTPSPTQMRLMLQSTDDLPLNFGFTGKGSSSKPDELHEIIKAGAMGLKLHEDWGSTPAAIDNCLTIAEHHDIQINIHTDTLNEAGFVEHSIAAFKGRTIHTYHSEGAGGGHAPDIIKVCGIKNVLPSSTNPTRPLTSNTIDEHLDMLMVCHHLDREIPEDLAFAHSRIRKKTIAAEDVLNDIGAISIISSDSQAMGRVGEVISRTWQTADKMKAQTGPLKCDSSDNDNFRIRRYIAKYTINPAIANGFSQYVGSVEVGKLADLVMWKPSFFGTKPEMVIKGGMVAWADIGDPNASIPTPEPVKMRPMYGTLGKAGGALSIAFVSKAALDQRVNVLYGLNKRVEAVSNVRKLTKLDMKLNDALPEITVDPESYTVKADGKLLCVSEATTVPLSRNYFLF
# ASSAY COMMENT: biochemical
# MEASUREMENT CONTEXT: Urease Activity IC50 ± SEM, 100 mM urea, pH 8.2, 37 °C
One number for each entry, as −log10 of the molar value.

>>> print(df.to_string())
                                   molecule  measured_number
0  NC(=S)NNS(=O)(=O)c1ccc([N+](=O)[O-])cc1 [Compound 12b]             6.85
1  Cc1ccc(S(=O)(=O)NNC(N)=S)cc1[N+](=O)[O-] [Compound 12f]             7.17
2  Cc1cc(C)cc(S(=O)(=O)NNC(N)=S)c1 [Compound 12e]             7.02

Each of the following entries comes with a recorded value; kindly state pIC50 for each.
1. O=[N+]([O-])c1ccc(S(=O)(=O)NC23CC4CC(CC(C4)C2)C3)cc1 [Compound 9b]
2. Cc1ccc(S(=O)(=O)NC23CC4CC(CC(C4)C2)C3)cc1[N+](=O)[O-] [Compound 9f]
3. NC(=S)NNS(=O)(=O)c1ccc(-c2ccccc2)cc1 [Compound 12c]
4. O=S(=O)(NC12CC3CC(CC(C3)C1)C2)c1cccc(Cl)c1Cl [Compound 9d]
5. O=S(=O)(Nc1ccc(S(=O)(=O)Nc2ncccn2)cc1)c1ccc(-c2ccccc2)cc1 [Compound 6c]

Result:
[7.56, 7.25, 6.73, 7.27, 6.85]

Data origin: paper PMC6152116
